Entries and their EC50
biological target: GST-HttExon1Q21 (recombinant huntingtin exon 1 protein with 21 polyQ repeats fused to an N-terminal GST tag) (;human, UniProt P08515 1-218 = GST; P42858 1-88); test: ELISA
Sequence (P08515 1-218, tags or fused parts left off): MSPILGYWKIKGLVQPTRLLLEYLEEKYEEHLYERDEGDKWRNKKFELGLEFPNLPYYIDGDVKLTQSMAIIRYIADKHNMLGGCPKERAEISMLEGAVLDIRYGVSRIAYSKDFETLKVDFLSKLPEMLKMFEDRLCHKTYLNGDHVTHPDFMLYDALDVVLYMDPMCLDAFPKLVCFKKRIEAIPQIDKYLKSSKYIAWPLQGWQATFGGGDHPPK
readout-label: EC50 (nM)

[[record]]
binder = "NI-302.63F3 (antibody, V domains shown) VH: QVQLVQSGSAFKKPGTSVKVSCKASGYTFETRSMNWVRQAPGQGLEYMGWINTNTGNRTYVQAFRGRFVFSLDTSVSTAYLQISNLKTEDTAVYYCARGAGGGYWFDSWGQGTLVTVSS VL: DIQMTQSPDSLAVSLGERATINCKSNQSLFYSSNNNNYLAWYQHKSGQPPKLLVYWGSTRESGVPDRFSGSGSGTDFTLTISSLQAEDVAIYYCHQYYHNPYTFGQGTKLEIK"
measured = 0.2

[[record]]
binder = "NI-302.74C11 (antibody, V domains shown) VH: EVQLVQSGTEVQKPGASVKVSCKASGYSFTGYFLHWVRQAPGQGLEWMGWINPNSGDTNYAEKFRGRIIMTRDTSVSTAHMELSSLRFDDTALYYCTREAPDPGAETDVWGQGTTVTVSS VL: QSVLTQPPSVSVSPGQTARITCSGDAVPKQYIYWYQQKPGQAPILVIYKDTQRPSGIPERFSGSNSGTTVTLTITGVQADDEGDYYCQSADSSATWVFGGGTKLTVL"
measured = 0.5

[[record]]
binder = "NI-302.72F10 (antibody, V domains shown) VH: EVQLVETGGGFVQPGGSLRLSCAASGFNFGSYAMSWVRQAPGKGLEWVSDISGIGSNTYYADSVKGRFTISRDNSDNTLYLDMSSLRAEDTARYYCAKDRKRSGWYEQWGQGTLVTVSS VL: EIVMTQSPATLTLSPGERATLSCRASQSISAYLGWYQQKPGQAPRLLIYDASIRATGIPDRFSGSGSGTDFTLTISSLEPEDSAVYYCHQRSKWPLTFGGGTKVEIK"
measured = 10

